So I've got a bunch of molecules here, and I need their Hb values.
organism: Rattus norvegicus; test: Open TG-GATES - Regimen: Single; assay type: toxicity, organism-based, Sprague-Dawley; parameters: regimen Single, gender Male, age 6 weeks; conditions: in vivo, po, 1000 mg/kg, 3 h, tissue Blood, route gavage, dose level High
Please state the figure in g/dL; there is no need to write the unit.

**Q:** Quick one: Hb of `COC1=CC(=O)C[C@@H](C)[C@]12Oc1c(Cl)c(OC)cc(OC)c1C2=O` ?
**A:** 12.2

**Q:** Quick one: Hb of CCOC(=O)CCC(=O)O[C@H]1[C@H](O[C@@H]2[C@@H](C)[C@H](O[C@H]3C[C@@](C)(OC)[C@@H](O)[C@H](C)O3)[C@@H](C)C(=O)O[C@H](CC)[C@@](C)(O)[C@H](O)[C@@H](C)C(=O)[C@H](C)C[C@@]2(C)O)O[C@H](C)C[C@@H]1N(C)C [ERYTHROMYCIN ETHYLSUCCINATE] ?
**A:** 13

**Q:** Quick one: Hb of `NC(N)=Nc1nc(CSCCC(N)=NS(N)(=O)=O)cs1` ?
**A:** 12.9

**Q:** Quick one: Hb of COc1ccc2[nH]c([S+]([O-])Cc3ncc(C)c(OC)c3C)nc2c1 (centres undefined) ?
**A:** 12.4
